The origin of these recorded values is ChEMBL document CHEMBL1158800.

Test system: KM-20L2
protocol: Growth inhibition of human KM20L2 cells after 48 hrs by particle counting method
Format: functional
assay.context: KM-20L2, 48 h
value.kind: GI50 (µg/mL)
Field format: number, assumed µg/mL, no unit text.

CCCCCCCCCCC/C=C/[C@@H](O)[C@H](CO[C@@H]1O[C@H](CO)[C@H](O)[C@H](O)[C@H]1O)NC(=O)CCCCCCCCCCCCCCC [TURBOSTATIN 3]; 0.48

For the compound CCCCCCCCCCC/C=C/[C@@H](O)[C@H](CO[C@@H]1O[C@H](CO)[C@@H](O)[C@H](O)[C@H]1O)NC(=O)CCCCCCCCCCCCCCC [TURBOSTATIN 1] , report GI50.
0.35

For the compound CCCCCCCCCCC/C=C/[C@@H](O)[C@H](CO[C@@H]1O[C@H](CO)[C@@H](O)[C@H](O)[C@H]1O)NC(=O)CCCCCCCCCCCCCCCCC [TURBOSTATIN 2] , report GI50.
0.35

For the compound CCCCCCCCCCC/C=C/[C@@H](O)[C@H](CO[C@@H]1O[C@H](CO)[C@H](O)[C@H](O)[C@H]1O)NC(=O)CCCCCCCCCCCCCCCCC [TURBOSTATIN 4] , report GI50.
0.41

* * *

Tested on: DU-145
protocol: Growth inhibition of human DU145 cells after 48 hrs by particle counting method
Format: functional
assay.context: DU-145, 48 h
value.kind: GI50 (µg/mL)
Field format: number, assumed µg/mL, no unit text.

Worked cases, answers included:
CCCCCCCCCCC/C=C/[C@@H](O)[C@H](CO[C@@H]1O[C@H](CO)[C@H](O)[C@H](O)[C@H]1O)NC(=O)CCCCCCCCCCCCCCC [TURBOSTATIN 3]; 2.6
CCCCCCCCCCC/C=C/[C@@H](O)[C@H](CO[C@@H]1O[C@H](CO)[C@@H](O)[C@H](O)[C@H]1O)NC(=O)CCCCCCCCCCCCCCCCC [TURBOSTATIN 2]; 1.7
CCCCCCCCCCC/C=C/[C@@H](O)[C@H](CO[C@@H]1O[C@H](CO)[C@H](O)[C@H](O)[C@H]1O)NC(=O)CCCCCCCCCCCCCCCCC [TURBOSTATIN 4]; 2.6

Now for another entry.
For the compound CCCCCCCCCCC/C=C/[C@@H](O)[C@H](CO[C@@H]1O[C@H](CO)[C@@H](O)[C@H](O)[C@H]1O)NC(=O)CCCCCCCCCCCCCCC [TURBOSTATIN 1] , report GI50.
1.6

* * *

Tested on: NCI-H460
protocol: Growth inhibition of human NCI-H460 cells after 48 hrs by particle counting method
Assay type: functional
assay.context: NCI-H460, 48 h
value.kind: GI50 (µg/mL)
Field format: number, assumed µg/mL, no unit text.

Worked cases, answers included:
CCCCCCCCCCC/C=C/[C@@H](O)[C@H](CO[C@@H]1O[C@H](CO)[C@H](O)[C@H](O)[C@H]1O)NC(=O)CCCCCCCCCCCCCCC [TURBOSTATIN 3]; 0.55
CCCCCCCCCCC/C=C/[C@@H](O)[C@H](CO[C@@H]1O[C@H](CO)[C@@H](O)[C@H](O)[C@H]1O)NC(=O)CCCCCCCCCCCCCCC [TURBOSTATIN 1]; 0.34
CCCCCCCCCCC/C=C/[C@@H](O)[C@H](CO[C@@H]1O[C@H](CO)[C@@H](O)[C@H](O)[C@H]1O)NC(=O)CCCCCCCCCCCCCCCCC [TURBOSTATIN 2]; 0.53

Now for another entry.
For the compound CCCCCCCCCCC/C=C/[C@@H](O)[C@H](CO[C@@H]1O[C@H](CO)[C@H](O)[C@H](O)[C@H]1O)NC(=O)CCCCCCCCCCCCCCCCC [TURBOSTATIN 4] , report GI50.
0.49
